Tested on: SIK2
Settings: concentration: 1 μM, replicates: in singlicate; n = 1;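 note: KINOMEscan kinase panel screen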
What %Inh was measured for each of the following?
One number for each entry, in %.

Example results:
{"smiles notation": "COc1cccc(-c2cc(-c3c[nH]nc3-c3ccccn3)ccn2)c1", "measured on": "SIK2", "reported metric": "%Inh", "reading": 0}
{"smiles notation": "COC(=O)c1c(-c2ccccc2)c2cc(OC)ccc2c(=O)n1Cc1ccccc1", "measured on": "SIK2", "reported metric": "%Inh", "reading": 6}
{"smiles notation": "Clc1cc(Cl)cc(Nc2ccnc(Nc3cc(Cl)cc(Cl)c3)n2)c1", "measured on": "SIK2", "reported metric": "%Inh", "reading": 0}
{"smiles notation": "Cl.NC(=O)c1cccc(Nc2nccc(Nc3ccc(Oc4cccc(Cl)c4)c(Cl)c3)n2)c1", "measured on": "SIK2", "reported metric": "%Inh", "reading": 5}

Proceeding to the next compound to report its %Inh.
## Input Under SIK2: %Inh value of `Cc1cccc(-c2nc(Nc3cccc(C(N)=O)c3)c3ccccc3n2)n1` ?
## Output 63

###

For each entry below, report its %Inh value.
System: PRKCI
Settings: concentration: 1 μM, replicates: in singlicate; n = 1
Answers are plain numbers, in %.

{"compound": "COc1cccc(-c2cc(-c3c[nH]nc3-c3ccccn3)ccn2)c1 [GW680338]", "unit symbol": "%", "%Inh": 0}

Parameter requested: %Inh. Apply to each item below.
1. CS(=O)(=O)c1ccc(-c2c(-c3ncn[nH]3)sc(N3CCOCC3)c2C#N)cc1
2. Cc1ccc(-c2cc(-c3c[nH]nc3-c3ccccn3)ccn2)cc1 [GW684088]
3. COc1cccc(NC(=O)NC2CCN(c3ccnc(Nc4ccc(F)cc4)n3)C2)c1 (centres unmarked) [GSK1379721]
4. Cc1csc(-c2nc(Nc3ccncc3)c3ccccc3n2)n1 [GW869640]

## Output
24
12
4
30

###

Tested on: IKK-epsilon
Construct: gene IKBKE
Details: concentration: 1 μM, replicates: in singlicate; n = 1
Would you mind telling me the reported %Inh of each entry?
Give bare numbers, in %.

Consider the worked cases shown below.
{"compound": "Cc1ccc(NC(=O)Nc2cccc(Cl)c2)cc1-c1ccc(C(=O)Nc2ccncc2)cc1", "unit symbol": "%", "reading": 15}
{"compound": "COc1ccc(Nc2nccc(-c3cccc(NC(=O)c4cc5cc(F)ccc5[nH]4)c3)n2)cc1", "unit symbol": "%", "reading": 0}
{"compound": "Cl.NC(=O)c1cccc(Nc2nccc(Nc3ccc(Oc4cccc(Cl)c4)c(Cl)c3)n2)c1", "unit symbol": "%", "reading": 0}
{"compound": "NC(=O)c1nnc2ccccc2c1N", "unit symbol": "%", "reading": 0}
{"compound": "CC(C)(C)c1ccc(C(=O)Nc2cn3cc(-c4cccnc4)ccc3n2)cc1", "unit symbol": "%", "reading": 11}
{"compound": "COc1cc2ncn(-c3cc(OCC4CCCO4)c(C(N)=O)s3)c2cc1OC (stereo not shown)", "unit symbol": "%", "reading": 24}

Quick request: %Inh for each listed item, please.
1. Cc1c(Cn2ccn3c(=O)cc(N4CCOCC4)nc23)cccc1C(F)(F)F
2. O=C(Nc1ccc2c(c1)OCO2)NC1CCN(c2ccnc(Nc3ccc(F)cc3)n2)C1 (stereo not shown)
3. CC(=O)Nc1nc2cnc(Nc3cc(NC(=O)c4cccc(CCC#N)c4)ccc3C)nc2s1
4. O=C(Nc1ccccc1)Nc1cccc(Oc2ccc3nccn3n2)c1
5. Cn1ccc2ncnc(Oc3ccc(NC(=O)Nc4ccccc4)cc3)c21

## Output
[3, 0, 33, 0, 17]

Please report %Inh for every entry that follows.
1. O=C(Nc1n[nH]c2nc(-c3nccs3)c(Br)cc12)C1CC1
2. Cc1ccccc1-n1cnc2c(N)ncnc21

## Output
1
0

Attribution: paper PMC5540273
